Measured values drawn from patent US20050130989A1 for this set.

Target: tubulin (Sus scrofa, UniProt P02550+P02554)
Construct: Tubulin is purified from pig brain according to published methods
Sequence (P02550 whole entry): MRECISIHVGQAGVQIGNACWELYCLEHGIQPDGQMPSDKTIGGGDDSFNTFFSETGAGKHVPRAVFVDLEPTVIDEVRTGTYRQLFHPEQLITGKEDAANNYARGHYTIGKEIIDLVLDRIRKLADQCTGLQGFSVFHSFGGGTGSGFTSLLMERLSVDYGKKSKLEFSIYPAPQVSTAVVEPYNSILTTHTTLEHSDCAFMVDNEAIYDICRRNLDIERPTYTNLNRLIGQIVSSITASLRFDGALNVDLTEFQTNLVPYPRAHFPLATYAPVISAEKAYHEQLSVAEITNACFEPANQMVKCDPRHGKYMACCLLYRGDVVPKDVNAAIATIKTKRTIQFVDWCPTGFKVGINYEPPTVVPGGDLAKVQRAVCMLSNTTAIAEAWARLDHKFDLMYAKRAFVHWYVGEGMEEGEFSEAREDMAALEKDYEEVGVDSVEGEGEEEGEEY
Sequence (P02554 whole entry): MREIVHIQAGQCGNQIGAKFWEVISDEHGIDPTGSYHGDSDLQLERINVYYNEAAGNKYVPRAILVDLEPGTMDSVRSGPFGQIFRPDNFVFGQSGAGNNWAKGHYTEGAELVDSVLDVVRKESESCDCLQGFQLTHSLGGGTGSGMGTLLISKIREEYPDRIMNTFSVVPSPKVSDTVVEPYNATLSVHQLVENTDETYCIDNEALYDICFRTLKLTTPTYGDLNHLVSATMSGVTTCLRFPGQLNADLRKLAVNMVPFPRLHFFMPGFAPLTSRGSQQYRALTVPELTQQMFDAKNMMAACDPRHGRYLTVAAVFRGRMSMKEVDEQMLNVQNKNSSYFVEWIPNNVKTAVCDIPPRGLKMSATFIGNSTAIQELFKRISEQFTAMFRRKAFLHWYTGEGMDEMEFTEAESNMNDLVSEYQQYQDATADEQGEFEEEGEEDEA
Assay: Evaluation of the inhibition of tubulin polymerization (turbidimetry)
Conditions: tubulin 10 μm (1 mg/ml), 37° C., turbidity at 350 nm; concentration that inhibits the rate of polymerization by 50%; read-out: Inhibition of tubulin polymerization IC 50 (μm)
Procedure: Tubulin is purified from pig brain according to published methods (Shelanski et al., 1973, Proc. Natl. Acad. Sci. USA, 70, 765-768. Weingarten et al., 1975, Proc. Natl. Acad. Sci. USA, 72, 1858-1862). […] The polymerization of tubulin to microtubules is monitored by turbidimetry as follows: the tubulin is adjusted to a concentration of 10 μm (1 mg/ml) in RB/2 30% glycerol buffer to which 1 mM GTP and 6 mM MgCl2 are added. […] The increase in the turbidity of the solution is monitored at 350 nm. […]
Property: pIC50; scope: individual compounds
The quantity pIC50 is defined as the negative base-10 logarithm of the molar concentration.

A selection of reference data follows.
Cc1cc(C(=S)N2CCN(c3cccc(Cl)c3)CC2)n(-c2ccccc2)n1: 5.85
Cc1cc(C(=O)N2CCN(c3cccc(Cl)c3Cl)CC2)n(-c2ccccc2)n1: 5.74
CC(=O)c1cccc(N2CCN(C(=O)c3cc(C)nn3-c3ccccc3)CC2)c1: 5.85
COc1ccc(-n2nc(C)cc2C(=O)N2CCN(c3ccccc3)CC2)cc1: 4.70
Cc1cc(C(=O)N2CCN(c3ccc(F)c(Cl)c3)CC2)n(-c2ccccc2)n1: 5.81
COc1cc(OC)cc(N2CCN(C(=O)c3cc(-c4ccsc4C=O)nn3-c3ccccc3)CC2)c1: 4.89
Cc1cccc(-n2nc(C)cc2C(=O)N2CCN(c3ccc(Cl)c(Cl)c3)CC2)c1: 5.92
Cc1cccc(-n2nc(C)cc2C(=O)N2CCN(c3ccccc3C(F)(F)F)CC2)c1: 5.26
COc1cc(OC)cc(N2CCN(C(=O)c3cc(CO)nn3-c3ccccc3)CC2)c1: 6.00
COc1ccc(Cl)cc1N1CCN(C(=O)c2cc(C)nn2-c2ccc(F)cc2)CC1: 5.89

Input CCOC(=O)c1cccc(N2CCN(C(=O)c3cc(C)nn3-c3ccccc3)CC2)c1 . Output pIC50: 5.47

Input O=C(c1cc(OCc2ccccc2)nn1-c1ccccn1)N1CCN(c2cccc(Cl)c2)CC1 . Output pIC50: 5.64

Input Cc1cc(C(=O)N2CCN(c3ccccc3)CC2)n(-c2ccccn2)n1 . Output pIC50: 5.02
